- TESTED_ON: Alpha-1A adrenergic receptor (Rattus norvegicus, UniProt P43140)
- Sequence (P43140 whole entry): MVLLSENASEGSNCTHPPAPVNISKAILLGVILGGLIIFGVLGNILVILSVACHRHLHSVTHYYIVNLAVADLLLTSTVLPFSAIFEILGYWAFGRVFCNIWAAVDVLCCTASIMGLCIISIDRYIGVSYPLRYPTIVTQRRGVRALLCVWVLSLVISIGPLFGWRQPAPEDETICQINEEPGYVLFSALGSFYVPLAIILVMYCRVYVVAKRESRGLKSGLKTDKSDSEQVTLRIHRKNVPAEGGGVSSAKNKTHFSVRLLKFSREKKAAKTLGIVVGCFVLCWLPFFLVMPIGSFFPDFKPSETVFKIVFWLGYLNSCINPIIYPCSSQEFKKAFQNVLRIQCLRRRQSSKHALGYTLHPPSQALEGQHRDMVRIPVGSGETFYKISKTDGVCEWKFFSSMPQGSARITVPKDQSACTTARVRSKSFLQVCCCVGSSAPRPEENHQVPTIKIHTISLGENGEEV
- ASSAY_NAME: In vitro binding affinity using [3H]prazosin as radioligand against alpha-1A adrenergic receptor
pKi: −log10 of the molar value.
Respond with YES for pKi values of 9 and above, NO for values below.

LINE_NOTATION | ASSIGNED_LABEL
COc1cccc2c1CC[C@H]1CN(CCn3c(=O)[nH]c4c(sc5cccc(Cl)c54)c3=O)C[C@@H]21 | YES
COc1cnc2sc3c(=O)n(CCN4C[C@@H]5CCc6c(OC)cccc6[C@@H]5C4)c(=O)[nH]c3c2n1 | YES
COc1cccc2c1CC[C@H]1CN(CCn3c(=O)[nH]c4c(sc5cc(C(F)(F)F)ccc54)c3=O)C[C@@H]21 | NO
COc1cccc2c1CC[C@H]1CN(CCn3c(=O)[nH]c4c(sc5ccc(C)cc54)c3=O)C[C@@H]21 | NO
COc1cccc2c1CC[C@H]1CN(CCn3c(=O)[nH]c4c(sc5nc(-c6ccccc6)cnc54)c3=O)C[C@@H]21 | NO

Turning now to a further record.
API: above_or_equal(metric=pKi, cutoff=9) for item COc1cccc2c1CC[C@H]1CN(CCn3c(=O)[nH]c4c(sc5c(Cl)cccc54)c3=O)C[C@@H]21
NO

---

Please respond with reported Selectivity ratio for every item in the list.
- Organism: Cricetulus griseus
- ASSAY_NAME: Ratio between Ki(alpha-1b)/Ki(alpha1A)
One number for each entry.

LINE_NOTATION | Selectivity ratio
COc1cccc2c1CC[C@H]1CN(CCn3c(=O)[nH]c4c(sc5ncc(-c6ccccc6)nc54)c3=O)C[C@@H]21 | 30.7
COC(=O)c1ccc2sc3c(=O)n(CCN4C[C@@H]5CCc6c(OC)cccc6[C@@H]5C4)c(=O)[nH]c3c2c1 | 3.01
COc1cccc2c1CC[C@H]1CN(CCn3c(=O)[nH]c4c(sc5ccc([N+](=O)[O-])cc54)c3=O)C[C@@H]21 | 6.64

Given the compound COc1cccc2c1CC[C@H]1CN(CCn3c(=O)[nH]c4c(sc5cc(C(F)(F)F)ccc54)c3=O)C[C@@H]21 , what is its reported Selectivity ratio?
2.56

---

- TESTED_ON: Alpha-1A adrenergic receptor (Rattus norvegicus, UniProt P43140)
- ASSAY_NAME: In vitro binding affinity using [3H]prazosin as radioligand against adrenoceptor alpha 1A
MEASUREMENT_NAME: pKi
Answers are plain numbers, as −log10 of the molar value.

LINE_NOTATION | pKi
COc1cccc2c1CC[C@H]1CN(CCn3c(=O)[nH]c4c(sc5ccc(Cl)nc54)c3=O)C[C@@H]21 | 9.42

Given the compound COc1cccc2c1CC[C@H]1CN(CCn3c(=O)[nH]c4c(sc5ncc(Cl)nc54)c3=O)C[C@@H]21 , what is its reported pKi?
9.16

---

- Species: Rattus norvegicus
- ASSAY_NAME: Antagonist dissociation constant in rat spleen, number of determinations => 3.
- CONDITION_SUMMARY: read-out: pA2 (converted)
Please respond with reported Kb for every item in the list.

MOLECULE | Kb
COc1cc2nc(N(C)CCCNC(=O)C3CCCO3)nc(N)c2cc1OC (centres undefined) | 4.9 nM

Provide reported Kb for each item, in the same order as listed.
1. COc1cc2nc(N3CCN(C(=O)C4CCCO4)CC3)nc(N)c2cc1OC (centres undefined)
2. COc1cccc2c1CC[C@H]1CN(CCn3c(=O)[nH]c4c(sc5ncc(Cl)nc54)c3=O)C[C@@H]21
3. CCOc1ccccc1OCCN[C@H](C)Cc1ccc(OC)c(S(N)(=O)=O)c1

1: 2.51 nM; 2: 44.7 nM; 3: 0.204 nM

---

- Species: Cricetulus griseus
- ASSAY_NAME: Ratio between Ki(alpha-1b)/Ki(alpha1A)
Please respond with reported Selectivity ratio for every item in the list.
Give bare numbers.

COMPOUND | Selectivity ratio
COc1cccc2c1CC[C@H]1CN(CCn3c(=O)[nH]c4c(sc5c(OC)ccnc54)c3=O)C[C@@H]21 | 8.45

Provide reported Selectivity ratio for each item, in the same order as listed.
1. COc1cnc2sc3c(=O)n(CCN4C[C@@H]5CCc6c(OC)cccc6[C@@H]5C4)c(=O)[nH]c3c2n1
2. COc1cccc2c1CC[C@H]1CN(CCn3c(=O)[nH]c4c(sc5nc(C)c(C)nc54)c3=O)C[C@@H]21

10.6
35.6

Provide reported Selectivity ratio for each item, in the same order as listed.
1. COc1cccc2c1CCC1CN(CCn3c(=O)[nH]c4c(oc5ccccc54)c3=O)CC21 (cis isomer)
2. COc1cccc2c1CC[C@H]1CN(CCn3c(=O)[nH]c4c(sc5cccc(OC)c54)c3=O)C[C@@H]21
3. COc1cccc2c1CC[C@H]1CN(CCn3c(=O)[nH]c4c(sc5ccc(Cl)cc54)c3=O)C[C@@H]21
4. COc1cccc2c1CC[C@H]1CN(CCn3c(=O)[nH]c4c(sc5nc(C)cnc54)c3=O)C[C@@H]21
5. COc1cccc2c1CC[C@H]1CN(CCn3c(=O)[nH]c4c(sc5cc(C#N)ccc54)c3=O)C[C@@H]21

2.48
4
4.34
27.5
15.5

Given the compound COc1cccc2c1CC[C@H]1CN(CCn3c(=O)[nH]c4c(sc5c(Cl)ccnc54)c3=O)C[C@@H]21 , what is its reported Selectivity ratio?
19.7

---

- TESTED_ON: Alpha-1D adrenergic receptor (Rattus norvegicus)
- Sequence (P23944 whole entry): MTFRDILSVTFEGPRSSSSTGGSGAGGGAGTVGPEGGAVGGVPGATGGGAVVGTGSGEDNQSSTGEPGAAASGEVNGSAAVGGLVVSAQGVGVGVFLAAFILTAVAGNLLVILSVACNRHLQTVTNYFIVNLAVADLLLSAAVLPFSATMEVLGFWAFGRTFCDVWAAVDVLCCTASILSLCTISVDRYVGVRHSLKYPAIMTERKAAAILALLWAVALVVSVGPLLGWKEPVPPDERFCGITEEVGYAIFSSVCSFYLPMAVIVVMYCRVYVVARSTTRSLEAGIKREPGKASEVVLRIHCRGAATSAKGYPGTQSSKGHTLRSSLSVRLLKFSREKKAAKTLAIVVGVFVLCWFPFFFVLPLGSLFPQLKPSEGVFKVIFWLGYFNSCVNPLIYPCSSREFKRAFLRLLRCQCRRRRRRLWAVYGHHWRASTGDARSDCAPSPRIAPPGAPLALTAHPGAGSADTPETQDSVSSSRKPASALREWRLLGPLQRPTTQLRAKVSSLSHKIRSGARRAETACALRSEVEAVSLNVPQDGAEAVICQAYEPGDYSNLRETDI
- ASSAY_NAME: In vitro binding affinity using [3H]prazosin as radioligand against alpha-1D adrenergic receptor expressed in LTK cell
- Type: cell-based
MEASUREMENT_NAME: Ki (nM)
One number for each entry, in nM.

Here's what some known entries look like.
LINE_NOTATION | Ki, nM
COc1cccc2c1CC[C@H]1CN(CCn3c(=O)[nH]c4c(sc5c(C#N)cccc54)c3=O)C[C@@H]21 | 2.08
COC(=O)c1ccc2sc3c(=O)n(CCN4C[C@@H]5CCc6c(OC)cccc6[C@@H]5C4)c(=O)[nH]c3c2c1 | 2.84
COc1cccc2c1CC[C@H]1CN(CCn3c(=O)[nH]c4c(sc5cc(C(N)=O)ccc54)c3=O)C[C@@H]21 | 0.27

Next, consider the following compound.
Notebook: pull reported Ki for Alpha-1D adrenergic receptor (Rattus norvegicus), entry COc1cccc2c1CC[C@H]1CN(CCn3c(=O)[nH]c4c(sc5c(Cl)ccnc54)c3=O)C[C@@H]21
4.16

---

- TESTED_ON: Alpha-1B adrenergic receptor (Mesocricetus auratus)
- Sequence (P18841 whole entry): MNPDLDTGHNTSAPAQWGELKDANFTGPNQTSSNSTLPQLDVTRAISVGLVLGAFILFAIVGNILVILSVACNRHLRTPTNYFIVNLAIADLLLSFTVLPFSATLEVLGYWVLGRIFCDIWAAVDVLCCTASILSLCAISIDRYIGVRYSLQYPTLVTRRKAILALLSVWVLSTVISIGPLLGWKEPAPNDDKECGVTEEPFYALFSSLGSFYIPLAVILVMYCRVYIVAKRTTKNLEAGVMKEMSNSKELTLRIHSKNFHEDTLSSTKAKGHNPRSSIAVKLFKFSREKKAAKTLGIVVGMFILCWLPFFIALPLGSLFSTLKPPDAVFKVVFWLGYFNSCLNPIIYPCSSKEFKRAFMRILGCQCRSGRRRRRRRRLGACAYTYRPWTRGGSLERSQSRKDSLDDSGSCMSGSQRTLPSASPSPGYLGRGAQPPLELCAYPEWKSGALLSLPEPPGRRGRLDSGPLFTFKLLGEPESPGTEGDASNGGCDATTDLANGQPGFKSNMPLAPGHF
- ASSAY_NAME: In vitro binding affinity using [3H]prazosin as radioligand against alpha-1B adrenergic receptor expressed in LTK cell
- Format: cell-based
MEASUREMENT_NAME: Ki (nM)
Numbers only, in nM.

Here's what some known entries look like.
LINE_NOTATION | TESTED_ON | SCALE_UNIT | NUMERIC_READOUT
COc1cccc2c1CC[C@H]1CN(CCn3c(=O)[nH]c4c(sc5cccc(C#N)c54)c3=O)C[C@@H]21 | Alpha-1B adrenergic receptor (Mesocricetus auratus) | nM | 35.8
COc1cccc2c1CC[C@H]1CN(CCn3c(=O)[nH]c4c(sc5ccc(C#N)cc54)c3=O)C[C@@H]21 | Alpha-1B adrenergic receptor (Mesocricetus auratus) | nM | 14.3
COC(=O)c1ccc2sc3c(=O)n(CCN4C[C@@H]5CCc6c(OC)cccc6[C@@H]5C4)c(=O)[nH]c3c2c1 | Alpha-1B adrenergic receptor (Mesocricetus auratus) | nM | 14.3

Next, consider the following molecule.
Notebook: pull reported Ki for Alpha-1B adrenergic receptor (Mesocricetus auratus), entry COc1cccc2c1CC[C@H]1CN(CCn3c(=O)[nH]c4c(sc5cc(C(N)=O)ccc54)c3=O)C[C@@H]21
0.86

---

Please respond with reported Ki for every item in the list.
- TESTED_ON: Alpha-1A adrenergic receptor (Rattus norvegicus, UniProt P43140)
- ASSAY_NAME: In vitro binding affinity using [3H]prazosin as radioligand against alpha-1A adrenergic receptor
Answers are plain numbers, in nM.

COMPOUND | TESTED_ON | MEASUREMENT_NAME | SCALE_UNIT | NUMERIC_READOUT
COc1cccc2c1CC[C@H]1CN(CCn3c(=O)[nH]c4c(sc5cncnc54)c3=O)C[C@@H]21 | Alpha-1A adrenergic receptor (Rattus norvegicus, UniProt P43140) | Ki | nM | 1.62
COc1cccc2c1CC[C@H]1CN(CCn3c(=O)[nH]c4c(sc5ncc(-c6ccccc6)nc54)c3=O)C[C@@H]21 | Alpha-1A adrenergic receptor (Rattus norvegicus, UniProt P43140) | Ki | nM | 3.91
COc1cccc2c1CC[C@H]1CN(CCn3c(=O)[nH]c4c(sc5cccc(C#N)c54)c3=O)C[C@@H]21 | Alpha-1A adrenergic receptor (Rattus norvegicus, UniProt P43140) | Ki | nM | 3.3
COC(=O)c1ccc2sc3c(=O)n(CCN4C[C@@H]5CCc6c(OC)cccc6[C@@H]5C4)c(=O)[nH]c3c2c1 | Alpha-1A adrenergic receptor (Rattus norvegicus, UniProt P43140) | Ki | nM | 4.75
COc1cccc2c1CCC1CN(CCCCn3c(=O)[nH]c4c(sc5ccccc54)c3=O)CC21 (cis isomer) | Alpha-1A adrenergic receptor (Rattus norvegicus, UniProt P43140) | Ki | nM | 7.43
COc1cccc2c1CC[C@H]1CN(CCn3c(=O)[nH]c4c(sc5cc(C(N)=O)ccc54)c3=O)C[C@@H]21 | Alpha-1A adrenergic receptor (Rattus norvegicus, UniProt P43140) | Ki | nM | 0.29
COc1cccc2c1CC[C@H]1CN(CCn3c(=O)[nH]c4c(sc5ccc(C#N)cc54)c3=O)C[C@@H]21 | Alpha-1A adrenergic receptor (Rattus norvegicus, UniProt P43140) | Ki | nM | 1.64
COc1cccc2c1CC[C@H]1CN(CCn3c(=O)[nH]c4c(sc5cccc(C)c54)c3=O)C[C@@H]21 | Alpha-1A adrenergic receptor (Rattus norvegicus, UniProt P43140) | Ki | nM | 1.29
COc1cccc2c1CC[C@H]1CN(CCn3c(=O)[nH]c4c(sc5c(C#N)cccc54)c3=O)C[C@@H]21 | Alpha-1A adrenergic receptor (Rattus norvegicus, UniProt P43140) | Ki | nM | 6.35
COc1cccc2c1CC[C@H]1CN(CCn3c(=O)[nH]c4c(sc5ccc(C(N)=O)cc54)c3=O)C[C@@H]21 | Alpha-1A adrenergic receptor (Rattus norvegicus, UniProt P43140) | Ki | nM | 0.52

Provide reported Ki for each item, in the same order as listed.
1. COc1cccc2c1CC[C@H]1CN(CCn3c(=O)[nH]c4c(sc5ccc(Cl)cc54)c3=O)C[C@@H]21
2. COc1cccc2c1CC[C@H]1CN(CCn3c(=O)[nH]c4c(sc5nccnc54)c3=O)C[C@@H]21
3. COc1cccc2c1CC[C@H]1CN(CCn3c(=O)[nH]c4c(sc5nc(C)c(C)nc54)c3=O)C[C@@H]21

1: 0.44; 2: 0.72; 3: 0.39

Provide reported Ki for each item, in the same order as listed.
1. COc1cccc2c1CCC1CN(CCn3c(=O)[nH]c4c(oc5ccccc54)c3=O)CC21 (cis isomer)
2. COc1cccc2c1CC[C@H]1CN(CCn3c(=O)[nH]c4c(sc5cccc(OC)c54)c3=O)C[C@@H]21
3. COc1cccc2c1CC[C@H]1CN(CCn3c(=O)[nH]c4c(sc5ccncc54)c3=O)C[C@@H]21

2.17
0.77
0.33
